Hello, the source for this data is patent US20070213291A1, in case you need it.

Tested on: rhesus monkey PBMCs
assayRemarks: Cytokine production by rhesus monkey PBMC (ELISA)
Type: cell-based
experimentalParameters: PBMC of 4 healthy rhesus monkeys, 100 μg/ml, 48 h
Entries and their TNF-alpha fold increase: mean +/− SD values follow.
metricName: TNF-alpha fold increase: mean +/− SD

> print(dat)
                                  seqtext       measuredtarget                            metricname                      result
1                   TGGTTG [SEQ ID NO:29]  rhesus monkey PBMCs  TNF-alpha fold increase: mean +/− SD  16.5 +/− 2.7 fold increase
2                   GGTTGG [SEQ ID NO:41]  rhesus monkey PBMCs  TNF-alpha fold increase: mean +/− SD  14.1 +/− 8.2 fold increase
3                   TCGTTC [SEQ ID NO:37]  rhesus monkey PBMCs  TNF-alpha fold increase: mean +/− SD  14.7 +/− 3.1 fold increase
4                   GGGGGG [SEQ ID NO:44]  rhesus monkey PBMCs  TNF-alpha fold increase: mean +/− SD  13.9 +/− 8.5 fold increase
5  GGGCGG (unmodified DNA) [SEQ ID NO:46]  rhesus monkey PBMCs  TNF-alpha fold increase: mean +/− SD  16.8 +/− 4.1 fold increase
6                   TTTGTT [SEQ ID NO:23]  rhesus monkey PBMCs  TNF-alpha fold increase: mean +/− SD   4.4 +/− 3.8 fold increase
7                   CCGTCC [SEQ ID NO:28]  rhesus monkey PBMCs  TNF-alpha fold increase: mean +/− SD  14.2 +/− 3.7 fold increase
8                   GGTGGG [SEQ ID NO:24]  rhesus monkey PBMCs  TNF-alpha fold increase: mean +/− SD  14.5 +/− 5.4 fold increase
9                   GGCCGG [SEQ ID NO:43]  rhesus monkey PBMCs  TNF-alpha fold increase: mean +/− SD  16.9 +/− 3.5 fold increase

----------
Entries and their ↑ IL-12 (fold increase treated vs control cells) values follow.
System: THP-1 human acute monocytic leukemia cells
assayRemarks: Cytokine production by THP-1 cells (ELISA)
Assay type: cell-based
experimentalParameters: THP-1, 1×10^6 cells, 100 μg/ml, 48 h; p70 complex and free p40
metricName: ↑ IL-12 (fold increase treated vs control cells) (x)

> print(dat)
                                  substance  number
1                     TTTGTT [SEQ ID NO:23]     3.5
2                     GGTTGG [SEQ ID NO:41]     3.3
3  TTAGGG (phosphodiester backbone) [SEQ ID NO:49, reference compound]     2.0
4                              GoGoGsToGoGo     0.1
5                     GGTGGG [SEQ ID NO:24]     3.7
6    GGGAGG (unmodified DNA) [SEQ ID NO:45]    −1.6
7  AAAGAGGGGCATGACCCGGTGCGGGGGTTCTTGCACTCGGCATAG (unmodified DNA) [BCG A-1, reference compound]     1.9
8  ACCGATGACGTCGCCGGTGACGGCAACACGACGGCCACCGTGCTG (unmodified DNA) [BCG A-4, reference compound]     0.9
9    GGGTGG [SEQ ID NO:25 phosphorothioate]     0.0

----------
Test system: MCF-7 human breast cancer cells
assayRemarks: Inhibition of MCF-7 cell proliferation (MTT)
Type: cell-based
experimentalParameters: 100 μg/ml, 48 h, 5×10^5 cells/ml
metricName: % INHIBITION of MCF-7 human breast cancer cell proliferation (%)

> print(dat)
                                substance  number
1                            GoGoGsTsGoGo      43
2                            GsGoGoToGoGs      12
3  GTGTGT [SEQ ID NO:10 phosphorothioate]      12

----------
Entries and their % INHIBITION of Jurkat human leukemia T cell proliferation values follow.
Test system: Jurkat human leukemia T cells
assayRemarks: Inhibition of Jurkat human leukemia T cell proliferation (MTT reduction)
Format: cell-based
experimentalParameters: 100 μg/ml sequence, 48 h, 2.5×10^5 cells/ml
metricName: % INHIBITION of Jurkat human leukemia T cell proliferation (%)

> print(dat)
                                    seqtext  number
1  CGACTACAACGGCTGGGATATCAACACCCCGGCGTTCGAGTGGTA (unmodified DNA) [BCG ALPHA-1, reference compound]      10
2                     AGGTGA [SEQ ID NO:31]      10
3   GGGGTGG (unmodified DNA) [SEQ ID NO:62]      41
